Protein target, amino acids: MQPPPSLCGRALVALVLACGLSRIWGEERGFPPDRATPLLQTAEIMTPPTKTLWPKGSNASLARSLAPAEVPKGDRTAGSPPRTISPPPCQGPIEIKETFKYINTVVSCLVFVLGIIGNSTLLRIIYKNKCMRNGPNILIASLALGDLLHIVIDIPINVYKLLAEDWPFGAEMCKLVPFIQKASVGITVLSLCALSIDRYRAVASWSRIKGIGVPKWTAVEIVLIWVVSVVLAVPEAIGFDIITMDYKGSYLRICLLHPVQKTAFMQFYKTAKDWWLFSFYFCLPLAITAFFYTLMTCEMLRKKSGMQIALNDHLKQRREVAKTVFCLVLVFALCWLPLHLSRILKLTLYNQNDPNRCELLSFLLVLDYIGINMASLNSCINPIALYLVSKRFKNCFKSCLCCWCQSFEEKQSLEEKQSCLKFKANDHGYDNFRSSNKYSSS
measurement-name: Ki (nM)
API: value field is a number in nM; no unit string.

Ask | # lookup: Ki of COc1cc(OC)nc(O[C@H](C(=O)O)C(OC)(c2ccccc2)c2ccccc2)n1
Reply | 371

====

Molecular target: UniProtKB P35463
Sequence (P35463 whole entry): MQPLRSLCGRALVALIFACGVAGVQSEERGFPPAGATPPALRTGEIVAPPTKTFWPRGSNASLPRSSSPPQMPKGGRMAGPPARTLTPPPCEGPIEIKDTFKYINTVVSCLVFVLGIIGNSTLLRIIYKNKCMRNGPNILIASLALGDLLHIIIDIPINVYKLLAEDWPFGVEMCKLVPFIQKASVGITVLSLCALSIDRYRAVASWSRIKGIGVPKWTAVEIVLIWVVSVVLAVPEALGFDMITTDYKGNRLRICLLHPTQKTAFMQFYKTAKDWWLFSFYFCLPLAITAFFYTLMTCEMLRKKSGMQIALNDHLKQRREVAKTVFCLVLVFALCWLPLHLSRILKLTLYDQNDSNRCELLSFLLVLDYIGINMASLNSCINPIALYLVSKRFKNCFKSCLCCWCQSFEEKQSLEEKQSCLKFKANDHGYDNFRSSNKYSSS
Experiment: Displacement of 125I-ET1 from pig ETB receptor transfected in grivet COS7 cells
measurement-name: pIC50
pIC50 here is simply -log10 of the concentration when that concentration is written in mol/L.

Ask | # lookup: pIC50 of COc1ccccc1Oc1c(NS(=O)(=O)c2ccc(C(C)(C)C)cc2)nc(N2CCOCC2)nc1OCCC(=O)Nc1ccccc1C(C)C
Reply | 9.07

Ask | For Cc1ccc(-c2c(NS(=O)(=O)c3ccc(C(C)(C)CO)cc3)ncnc2OCCOc2ncc(Br)cn2)cc1 then?
Reply | 7.39

====

Molecular target: Endothelin-1 receptor (Rattus norvegicus, UniProt P26684)
Sequence (P26684 whole entry): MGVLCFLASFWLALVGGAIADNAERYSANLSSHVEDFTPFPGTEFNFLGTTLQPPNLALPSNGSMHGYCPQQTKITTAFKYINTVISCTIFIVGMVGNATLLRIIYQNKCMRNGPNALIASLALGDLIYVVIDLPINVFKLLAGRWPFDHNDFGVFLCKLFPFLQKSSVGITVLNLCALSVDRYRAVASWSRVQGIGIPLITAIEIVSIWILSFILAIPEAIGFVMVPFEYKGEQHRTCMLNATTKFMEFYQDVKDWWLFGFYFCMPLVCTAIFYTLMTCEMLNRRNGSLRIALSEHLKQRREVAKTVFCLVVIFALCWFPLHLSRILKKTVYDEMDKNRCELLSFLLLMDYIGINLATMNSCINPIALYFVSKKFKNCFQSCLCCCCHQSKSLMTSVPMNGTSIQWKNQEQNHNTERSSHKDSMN
Experiment: Antagonist activity at rat aortic ring ETA receptor in presence of ET1
Conditions: read-out: pA2 (converted)
Field: Kb. Provide a value for each of the compounds that follow.
API: value field is a number in nM; no unit string.

Ask | # lookup: Kb of COc1ccccc1Oc1c(NS(=O)(=O)c2ccc(C(C)(C)C)cc2)nc(-c2ccccc2)nc1OCCO
Reply | 126

Ask | For COc1ccccc1Oc1c(NS(=O)(=O)c2ccc(C(C)C)cn2)nc(N2CCOCC2)nc1OCC#CCOC(=O)c1ccccn1 then?
Reply | 20

Ask | For COc1ccccc1Oc1c(NS(=O)(=O)c2ccc(C(C)(C)C)cc2)ncnc1OCCO then?
Reply | 955

Ask | For COc1ccccc1Oc1c(NS(=O)(=O)c2ccc(C(C)(C)C)cc2)nc(-c2ncccn2)nc1OCCO [BOSENTAN] then?
Reply | 39.8

Ask | For O=S(=O)(Nc1ncnc(OCCO)c1-c1ccc(Cl)cc1)c1ccc(C(F)(F)F)cc1 then?
Reply | 1580

====

Field: IC50. Provide a value for each of the molecules that follow.
Molecular target: Endothelin receptor type B (Homo sapiens)
Sequence (P24530 whole entry): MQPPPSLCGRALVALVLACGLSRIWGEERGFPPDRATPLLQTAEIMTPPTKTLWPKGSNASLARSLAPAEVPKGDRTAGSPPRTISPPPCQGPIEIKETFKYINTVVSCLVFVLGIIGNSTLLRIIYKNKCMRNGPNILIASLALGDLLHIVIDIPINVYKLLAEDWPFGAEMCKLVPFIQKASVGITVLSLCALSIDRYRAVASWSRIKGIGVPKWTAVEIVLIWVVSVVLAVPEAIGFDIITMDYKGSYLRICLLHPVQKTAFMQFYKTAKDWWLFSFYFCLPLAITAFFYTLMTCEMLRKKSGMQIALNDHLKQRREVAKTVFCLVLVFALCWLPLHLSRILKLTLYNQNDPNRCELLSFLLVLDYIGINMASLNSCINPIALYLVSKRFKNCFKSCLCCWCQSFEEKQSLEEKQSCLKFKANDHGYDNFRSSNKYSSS
Assay: Displacement of radioligand from ETB receptor in human placenta cell membranes
API: value field is a number in nM; no unit string.

Ask | # lookup: IC50 of COc1ccccc1Oc1c(NS(=O)(=O)c2ccc(C(C)C)cn2)nc(-c2ccnc(-c3nnn[nH]3)c2)nc1OCCO [TEZOSENTAN]
Reply | 21

Ask | For O=S(=O)(Nc1ncnc(OCCO)c1-c1ccc(Cl)cc1)c1ccc(C(F)(F)F)cc1 then?
Reply | 2000

Ask | For O=S(=O)(Nc1ncnc(OCCO)c1-c1ccc(Cl)cc1)c1ccc(Cl)cc1 then?
Reply | 8500

Ask | For COc1ccccc1Oc1c(NS(=O)(=O)c2ccc(C)cn2)nc(-c2ccnc(-c3nnn[nH]3)c2)nc1OCCO [CLAZOSENTAN] then?
Reply | 175

Ask | For COc1ccccc1Oc1c(NS(=O)(=O)c2ccc(C)cn2)nc(-c2ccncc2)nc1OC [AVOSENTAN] then?
Reply | 600
